Where these numbers come from: the kinase profiling compilation of Christmann-Franck et al. (2016)

tested on: KIT (human), P10721 [V559D]; assay: KINOMEscan competition binding; conditions: compound 10.0 µM
Sequence (P10721 whole entry V559D, looked up): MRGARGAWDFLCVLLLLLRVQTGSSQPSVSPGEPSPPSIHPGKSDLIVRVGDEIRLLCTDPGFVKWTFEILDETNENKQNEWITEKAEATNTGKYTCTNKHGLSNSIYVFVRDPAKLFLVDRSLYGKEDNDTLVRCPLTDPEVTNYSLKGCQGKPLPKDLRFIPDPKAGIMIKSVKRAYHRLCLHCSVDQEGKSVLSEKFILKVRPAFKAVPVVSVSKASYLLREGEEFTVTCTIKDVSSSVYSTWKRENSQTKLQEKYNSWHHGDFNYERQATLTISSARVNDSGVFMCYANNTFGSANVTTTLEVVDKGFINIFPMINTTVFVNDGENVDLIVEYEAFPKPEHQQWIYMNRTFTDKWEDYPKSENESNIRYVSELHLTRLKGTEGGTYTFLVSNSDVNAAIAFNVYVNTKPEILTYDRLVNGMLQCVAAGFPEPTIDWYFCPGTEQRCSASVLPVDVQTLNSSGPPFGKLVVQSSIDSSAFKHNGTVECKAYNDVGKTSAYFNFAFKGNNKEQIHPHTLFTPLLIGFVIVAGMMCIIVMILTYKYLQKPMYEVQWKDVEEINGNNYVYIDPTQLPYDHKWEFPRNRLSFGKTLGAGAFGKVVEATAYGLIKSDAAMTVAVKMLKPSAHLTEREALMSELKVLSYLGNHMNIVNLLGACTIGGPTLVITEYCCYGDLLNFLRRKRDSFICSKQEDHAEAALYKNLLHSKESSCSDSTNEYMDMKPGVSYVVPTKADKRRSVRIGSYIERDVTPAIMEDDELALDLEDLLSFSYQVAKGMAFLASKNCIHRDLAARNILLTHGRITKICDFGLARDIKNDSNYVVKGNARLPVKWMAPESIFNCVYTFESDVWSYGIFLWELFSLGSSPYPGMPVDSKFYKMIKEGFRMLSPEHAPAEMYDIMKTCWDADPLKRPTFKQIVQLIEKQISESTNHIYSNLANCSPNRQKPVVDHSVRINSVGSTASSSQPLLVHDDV
Consider the reported kinase still bound, per cent of control of an entry and match it to a band in c1 (below 1%), c2 (1% to below 80%), c3 (80% or more)

Solved entries:
| STRUCTURE | GROUP_LABEL |
| --- | --- |
| CCN(CCO)CCCOc1ccc2c(Nc3cc(CC(=O)Nc4cccc(F)c4)[nH]n3)ncnc2c1 | c1 |
| CCN1CCN(Cc2ccc(NC(=O)c3ccc(C)c(/C=C/c4cnc5[nH]ccc5c4OC)c3)cc2C(F)(F)F)CC1 | c1 |
| CCN(CC)CCCCNc1ncc2c(n1)N(C)C(=O)N(c1c(Cl)c(OC)cc(OC)c1Cl)C2 | c2 |
| COc1cc(C(=O)N2CCC(N3CCN(C)CC3)CC2)ccc1Nc1ncc2c(n1)N(C)c1ccccc1C(=O)N2C | c3 |
| C=CC(=O)Nc1cc(-n2c(=O)ccc3cnc4ccc(-c5cn[nH]c5)cc4c32)ccc1C | c2 |
| COc1cc(N2CCC(C(N)=O)CC2)ccc1Nc1nc(N)c(Cl)c(Nc2ccccc2S(=O)(=O)C(C)C)n1 | c3 |
| COc1cc2c(Nc3ccc(NC(=O)c4ccccc4)cc3)ncnc2cc1OCCCN1CCOCC1 | c1 |
| C=CC(=O)Nc1cc(NC(=O)c2ccc(C)c(NC(=O)c3ccno3)c2)cc(C(F)(F)F)c1 | c2 |

// return the class label for O=c1[nH]c2ccccc2n1C1CCN(Cc2ccc(-c3nc4cc5[nH]cnc5cc4nc3-c3ccccc3)cc2)CC1
c3

// return the class label for Cc1ccc(NC(=O)c2cccc(C(C)(C)C#N)c2)cc1Nc1ccc2ncn(C)c(=O)c2c1
c1

// return the class label for COc1cc(N2CCN(C)CC2)ccc1Nc1nc(N)c(C(=O)c2c(Cl)cccc2Cl)s1
c3

// return the class label for CS(=O)(=O)N1CCN(Cc2cc3nc(-c4cccc5[nH]ncc45)nc(N4CCOCC4)c3s2)CC1
c3

// return the class label for COCC(=O)NC/C=C/c1ccc2ncnc(Nc3ccc(Oc4ccc(C)nc4)c(C)c3)c2c1
c2

// return the class label for CCC(=O)N1CCN(c2ccc(-n3c(=O)ccc4cnc5ccc(-c6cnc7ccccc7c6)cc5c43)cc2C(F)(F)F)CC1
c2

// return the class label for Cc1n[nH]c2ccc(-c3cncc(OC[C@@H](N)Cc4c[nH]c5ccccc45)c3)cc12
c3

// return the class label for COc1cc2ncn(-c3cc(OCc4ccccc4C(F)(F)F)c(C(N)=O)s3)c2cc1OC
c2

// return the class label for N#CCNC(=O)c1ccc(-c2ccnc(Nc3ccc(N4CCOCC4)cc3)n2)cc1
c2

// return the class label for CCCS(=O)(=O)Nc1ccc(F)c(C(=O)c2c[nH]c3ncc(Cl)cc23)c1F
c1

// return the class label for CN(C)C/C=C/C(=O)Nc1ccc(C(=O)Nc2cccc(Nc3nccc(-c4cccnc4)n3)c2)cc1
c1

// return the class label for COc1ccc(N(C(=O)Oc2cc(C(=O)Nc3cccc(C(F)(F)F)c3)ccc2C)c2ccnc(Nc3ccc(N4CCN(C)CC4)cc3)n2)c(OC)c1
c1

// return the class label for CCN(CC)CCCCNc1ncc2cc(-c3cc(OC)cc(OC)c3)c(NC(=O)NC(C)(C)C)nc2n1
c3

---

target: FGFR2 (human) (UniProt P21802); test: KINOMEscan competition binding; details: compound 10.0 µM
Sequence (P21802 whole entry, looked up): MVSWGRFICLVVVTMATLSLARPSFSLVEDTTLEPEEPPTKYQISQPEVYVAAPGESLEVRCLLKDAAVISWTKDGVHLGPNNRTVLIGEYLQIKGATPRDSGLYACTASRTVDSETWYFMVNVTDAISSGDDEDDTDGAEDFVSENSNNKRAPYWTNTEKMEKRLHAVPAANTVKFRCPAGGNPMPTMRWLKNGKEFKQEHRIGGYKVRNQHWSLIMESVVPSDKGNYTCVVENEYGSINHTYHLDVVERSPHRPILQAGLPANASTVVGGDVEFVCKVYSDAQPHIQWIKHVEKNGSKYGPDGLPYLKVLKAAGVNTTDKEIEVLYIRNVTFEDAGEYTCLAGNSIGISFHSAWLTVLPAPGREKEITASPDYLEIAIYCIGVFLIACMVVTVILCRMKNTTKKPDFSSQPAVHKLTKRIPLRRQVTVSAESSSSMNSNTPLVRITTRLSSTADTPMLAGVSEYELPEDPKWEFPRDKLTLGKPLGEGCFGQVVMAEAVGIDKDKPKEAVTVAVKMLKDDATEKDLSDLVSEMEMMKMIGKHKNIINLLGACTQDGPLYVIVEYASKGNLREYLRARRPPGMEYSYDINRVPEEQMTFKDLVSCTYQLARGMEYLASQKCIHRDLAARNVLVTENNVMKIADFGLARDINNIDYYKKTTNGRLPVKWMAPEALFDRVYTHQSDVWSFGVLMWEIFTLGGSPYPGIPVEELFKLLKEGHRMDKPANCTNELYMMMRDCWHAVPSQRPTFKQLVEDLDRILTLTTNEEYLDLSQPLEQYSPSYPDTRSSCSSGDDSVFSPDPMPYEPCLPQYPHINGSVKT
EXPERIMENTAL_ENDPOINT: kinase still bound, per cent of control (%)
Numbers only, in %.

Sample records with kinase still bound, per cent of control:
| STRUCTURE | UNIT_STRING | kinase still bound, per cent of control |
| --- | --- | --- |
| N#Cc1c(NC(=O)c2cccc3ccccc23)sc2c1CCCC2 | % | 100 |
| Cc1ccc(NC(=O)c2cccc(C(C)(C)C#N)c2)cc1Nc1ccc2ncn(C)c(=O)c2c1 | % | 55 |
| O=C1Nc2ccc(I)cc2/C1=C/c1cc(Br)c(O)c(Br)c1 | % | 59 |

Below are 6 compounds. Give each one its kinase still bound, per cent of control.
1. Cc1ccc(C(=O)Nc2cccc(C(F)(F)F)c2)cc1Nc1cncc(C(N)=O)c1
2. C[C@@H](Oc1cc(-n2cnc3ccc(CN4CCN(C)CC4)cc32)sc1C(N)=O)c1ccccc1C(F)(F)F
3. CCCS(=O)(=O)Nc1ccc(F)c(C(=O)c2c[nH]c3ncc(-c4ccc(Cl)cc4)cc23)c1F
4. CCOc1cc2ncc(C#N)c(Nc3ccc(OCc4ccccn4)c(Cl)c3)c2cc1NC(=O)/C=C/CN(C)C
5. C=CC(=O)Nc1cc(NC(=O)c2ccc(C)c(NC(=O)c3ccno3)c2)cc(C(F)(F)F)c1
6. OCCCNc1cc(-c2ccnc(Nc3cccc(Cl)c3)n2)ccn1

1. 100
2. 75
3. 64
4. 96
5. 99
6. 100

---

Please go through the items and note down their kinase still bound, per cent of control.
target: EPHB2 (human); experiment: KINOMEscan competition binding; conditions: compound 10.0 µM
One number for each entry, in %.

| COMPOUND | VALUE_REPORTED |
| --- | --- |
| COc1cc(C(=O)NC2CCN(C)CC2)ccc1Nc1ncc2c(n1)N(C1CCCC1)CCC(=O)N2C(C)C | 100 |
| COc1cc(C(=O)NC2CCN(C)CC2)ccc1Nc1ncc2c(n1)N(C1CCCC1)C(C)CC(=O)N2C (centres undefined) | 100 |
| Cc1cc([C@@H](C)Nc2ccccc2C(=O)O)c2nc(N3CCOCC3)cc(=O)n2c1 | 100 |
| O=C(NC1CC1)c1cccc(-c2ccc3c(NC(=O)C4CC4)n[nH]c3c2)c1 | 98 |
| Cc1ccc(NC(=O)c2cccc(C(C)(C)C#N)c2)cc1Nc1ccc2ncn(C)c(=O)c2c1 | 0 |

Below are 7 compounds. Give each one its kinase still bound, per cent of control.
1. CCC(=O)N1CCN(c2ccc(-n3c(=O)ccc4cnc5ccc(-c6cnc7ccccc7c6)cc5c43)cc2C(F)(F)F)CC1
2. Cc1ccc(C(=O)Nc2cccc(C(F)(F)F)c2)cc1Nc1cncc(C(N)=O)c1
3. CCN1CCN(Cc2ccc(Nc3ncc4c(n3)N(C)c3ccccc3C(=O)N4C)cc2C(F)(F)F)CC1
4. Nc1ccc(-c2ccc3ncc4ccc(=O)n(-c5cccc(C(F)(F)F)c5)c4c3c2)cn1
5. CCCS(=O)(=O)Nc1ccc(F)c(C(=O)c2c[nH]c3ncc(-c4ccc(Cl)cc4)cc23)c1F
6. CC[C@@H]1C(=O)N(C)c2cnc(Nc3ccc(C(=O)NC4CCN(C)CC4)cc3OC)nc2N1C1CCCC1
7. N#Cc1c(NC(=O)c2cccc3ccccc23)sc2c1CCCC2

100
1.6
100
98
99
100
75

Below are 7 compounds. Give each one its kinase still bound, per cent of control.
1. Cc1ccc2nc(NCCN)c3ncc(C)n3c2c1
2. C[C@@H](Oc1cc(-n2cnc3ccc(CN4CCN(C)CC4)cc32)sc1C(N)=O)c1ccccc1C(F)(F)F
3. C=CC(=O)Nc1cc(NC(=O)c2ccc(C)c(NC(=O)c3ccno3)c2)cc(C(F)(F)F)c1
4. O=C(NOC[C@H](O)CO)c1ccc(F)c(F)c1Nc1ccc(I)cc1F
5. CCOc1cc2ncc(C#N)c(Nc3ccc(OCc4ccccn4)c(Cl)c3)c2cc1NC(=O)/C=C/CN(C)C
6. C=CC(=O)Nc1cccc(Nc2nc(N[C@H]3CC[C@H](N(C)C)CC3)nc3c2ncn3C(C)C)c1
7. CN(C)C/C=C/C(=O)Nc1cccc(Nc2ncc3c(n2)N(C)c2ccccc2C(=O)N3C)c1

1: 100; 2: 99; 3: 77; 4: 73; 5: 86; 6: 87; 7: 100

---

molecular target: PRKCI (human) (UniProt P41743); test: KINOMEscan competition binding; conditions: compound 10.0 µM
Sequence (P41743 whole entry, looked up): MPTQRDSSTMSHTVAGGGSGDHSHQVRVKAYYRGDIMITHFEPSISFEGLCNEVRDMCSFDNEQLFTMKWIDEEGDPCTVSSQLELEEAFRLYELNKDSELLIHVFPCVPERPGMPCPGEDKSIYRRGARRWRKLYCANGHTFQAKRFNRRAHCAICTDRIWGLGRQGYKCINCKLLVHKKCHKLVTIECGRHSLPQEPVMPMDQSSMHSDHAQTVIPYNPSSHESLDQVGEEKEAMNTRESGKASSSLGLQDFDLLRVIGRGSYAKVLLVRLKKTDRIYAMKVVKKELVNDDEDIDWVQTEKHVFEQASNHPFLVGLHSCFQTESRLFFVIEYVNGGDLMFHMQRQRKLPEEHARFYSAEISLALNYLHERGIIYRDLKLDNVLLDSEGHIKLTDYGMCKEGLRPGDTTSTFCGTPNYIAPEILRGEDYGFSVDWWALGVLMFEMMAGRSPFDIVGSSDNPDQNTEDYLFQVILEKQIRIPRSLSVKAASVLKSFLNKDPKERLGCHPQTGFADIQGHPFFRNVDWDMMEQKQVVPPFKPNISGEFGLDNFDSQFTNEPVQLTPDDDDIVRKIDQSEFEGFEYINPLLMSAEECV
class 1 if kinase still bound, per cent of control is below 90%. class 0 if not; exact matches included in class 0.

Solved entries:
| STRUCTURE | TGT | GROUP_LABEL |
| --- | --- | --- |
| Cc1ccc(NC(=O)c2cccc(C(C)(C)C#N)c2)cc1Nc1ccc2ncn(C)c(=O)c2c1 | PRKCI (human) (UniProt P41743) | class 0 |
| Cc1cc([C@@H](C)Nc2ccccc2C(=O)O)c2nc(N3CCOCC3)cc(=O)n2c1 | PRKCI (human) (UniProt P41743) | class 0 |
| Nc1ccc(-c2ccc3ncc4ccc(=O)n(-c5cccc(C(F)(F)F)c5)c4c3c2)cn1 | PRKCI (human) (UniProt P41743) | class 0 |
| C=CC(=O)Nc1cccc(Nc2nc(N[C@H]3CC[C@H](N(C)C)CC3)nc3c2ncn3C(C)C)c1 | PRKCI (human) (UniProt P41743) | class 0 |
| O=C(NOC[C@H](O)CO)c1ccc(F)c(F)c1Nc1ccc(I)cc1F | PRKCI (human) (UniProt P41743) | class 1 |

A record lists COc1cc(N2CCN(C)CC2)ccc1Nc1nc(N)c(C(=O)c2c(Cl)cccc2Cl)s1 . Is its kinase still bound, per cent of control below 90%?
class 0

A record lists CCC(=O)N1CCN(c2ccc(-n3c(=O)ccc4cnc5ccc(-c6cnc7ccccc7c6)cc5c43)cc2C(F)(F)F)CC1 . Is its kinase still bound, per cent of control below 90%?
class 1

A record lists N#Cc1c(NC(=O)c2cccc3ccccc23)sc2c1CCCC2 . Is its kinase still bound, per cent of control below 90%?
class 1

A record lists CN(C)C/C=C/C(=O)Nc1cccc(Nc2ncc3c(n2)N(C)c2ccccc2C(=O)N3C)c1 . Is its kinase still bound, per cent of control below 90%?
class 0
